target: HIF1A/p300/CREB-binding protein (Homo sapiens, UniProt Q09472+Q16665+Q92793); assay: Binding affinity to hypoxia induced HIF-1 alpha/P300 CH1 domain (323 to 423 residues expressed in Escherichia coli (DE3)/CBP (unknown origin) interaction assessed as dissociation constant
Property Label: Kd (µM)
Dear colleague, please return just the value in µM, with no unit written.

# input Report Kd, nothing else, for this compound: `CC(C)C[C@@H]1NCCN([C@@H](CC(C)C)C(=O)N2CCN([C@@H](CCC(N)=O)C(N)=O)C(=O)[C@@H]2C)C1=O`
# output 5.3

* * *

biological target: Induced myeloid leukemia cell differentiation protein Mcl-1 (Homo sapiens); experiment: Displacement of fluorescent-labeled BH3 peptide from recombinant MCL1 (unknown origin) by fluorescence polarization-based competitive binding assay
Sequence (Q07820 whole entry): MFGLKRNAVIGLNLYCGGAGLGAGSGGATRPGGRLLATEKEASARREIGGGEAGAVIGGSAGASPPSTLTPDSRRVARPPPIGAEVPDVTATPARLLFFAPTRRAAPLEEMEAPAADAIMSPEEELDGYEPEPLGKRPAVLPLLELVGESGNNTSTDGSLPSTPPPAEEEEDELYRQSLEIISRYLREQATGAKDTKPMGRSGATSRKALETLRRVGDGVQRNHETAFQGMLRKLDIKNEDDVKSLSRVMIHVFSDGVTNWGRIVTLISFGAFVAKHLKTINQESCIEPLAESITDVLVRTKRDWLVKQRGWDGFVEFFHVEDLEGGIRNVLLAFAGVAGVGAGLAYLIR
Record form. Attribute: pKi. Fill in for each entry.
pKi field: float, defined as -log10 of concentration (mol/L).

# input Report pKi, nothing else, for this compound: Oc1ccc(CCNc2nc3nc(n2)N2CCN(CC2Cc2ccccc2)c2nc(nc(Nc4ccc(Oc5ccccc5)cc4)n2)NCCOCCOCCOCCOCCN3)cc1 (configuration not stated)
# output 5.59

# input Report pKi, nothing else, for this compound: Oc1ccc(CCNc2nc3nc(n2)N2CCN(CC2Cc2ccccc2)c2nc(nc(Nc4ccc(Oc5ccccc5)cc4)n2)NCCOCCOCCOCCN3)cc1 (configuration not stated)
# output 5.59
